biological target: Human immunodeficiency virus type 1 integrase (Human immunodeficiency virus 1, UniProt Q7ZJM1); test: Inhibition of HIV1 wild type integrase strand transfer activity
Sequence (Q7ZJM1 whole entry): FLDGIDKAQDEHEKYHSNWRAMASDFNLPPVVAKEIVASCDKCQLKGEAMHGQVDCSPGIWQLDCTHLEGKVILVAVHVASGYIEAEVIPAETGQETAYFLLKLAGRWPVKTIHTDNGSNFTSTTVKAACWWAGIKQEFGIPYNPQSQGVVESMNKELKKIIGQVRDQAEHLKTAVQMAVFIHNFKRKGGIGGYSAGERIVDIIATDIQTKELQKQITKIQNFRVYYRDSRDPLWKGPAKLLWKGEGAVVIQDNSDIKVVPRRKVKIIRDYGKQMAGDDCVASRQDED
value.kind: pIC50
# pIC50 is unitless: minus log10 of the molar concentration; print number only

| smiles.record | pIC50 |
| --- | --- |
| O=C(O)c1cc(-c2ccc([N+](=O)[O-])cc2)on1 | 4.01 |

Let us examine a further case.
Give its pIC50 value. Item: `O=C(O)c1cc(-c2cccc(OCc3ccccc3)c2)no1`
4.09

----------
tested on: Human immunodeficiency virus 1; assay: Antiviral activity against HIV1 3B assessed as inhibition of virus-induced cytopathogenicity in human C8166 cells after 4 days by MTT assay; format: functional, organism-based; conditions: Human immunodeficiency virus 1, 3B, C8166, 96 h
The following molecules are shown together with reported EC50 values.
# value in µM; strip the unit string

| smiles.record | study.system | measured.value |
| --- | --- | --- |
| O=C(O)c1cc(-c2ccc([N+](=O)[O-])cc2)[nH]n1 | Human immunodeficiency virus 1 | 3.6 |
| O=C(O)c1csnc1-c1cccc(OCc2ccccc2)c1 | Human immunodeficiency virus 1 | 58 |
| O=C(NO)c1cc(-c2cccc(OCc3ccccc3)c2)on1 | Human immunodeficiency virus 1 | 62.8 |
| O=C(O)c1cc(-c2cccc(OCc3ccccc3)c2)[nH]n1 | Human immunodeficiency virus 1 | 277 |
| O=C(O)c1cc(-c2cccc(OCc3ccccc3)c2)no1 | Human immunodeficiency virus 1 | 7.2 |

Give its EC50 value. Item: `O=C(O)c1cc(-c2cccc(OCc3ccccc3)c2)on1`
91

Give its EC50 value. Item: `O=C(O)c1cc(-c2ccc([N+](=O)[O-])cc2)on1`
199

Give its EC50 value. Item: `COC(=O)c1cc(-c2ccc([N+](=O)[O-])cc2)[nH]n1`
253

Give its EC50 value. Item: `O=C(O)c1cc(-c2cccc(OCc3ccccc3)c2)ns1`
51.7

----------
assay: Therapeutic index, ratio of CC50 for human C8166 cells to EC50 for HIV1 3B; type: cell-based; settings: read-out: Ratio CC50/EC50
value.kind: selectivity ratio
# respond with the number and nothing more

| smiles.record | selectivity ratio |
| --- | --- |
| O=C(O)c1cc(-c2cccc(OCc3ccccc3)c2)[nH]n1 | 2.31 |
| O=C(O)c1cc(-c2cccc(OCc3ccccc3)c2)on1 | 2.27 |
| O=C(NO)c1cc(-c2cccc(OCc3ccccc3)c2)on1 | 2.17 |
| O=C(O)c1cc(-c2cccc(OCc3ccccc3)c2)no1 | 39.2 |

Let us examine a further case.
Give its selectivity ratio value. Item: `O=C(O)c1cc(-c2cccc(OCc3ccccc3)c2)ns1`
4.76

----------
assay: Cytotoxicity against human C8166 cells by MTT method; type: cell-based
value.kind: CC50 (µM)
# value in µM; strip the unit string

| smiles.record | CC50 (µM) |
| --- | --- |
| O=C(NO)c1cc(-c2cccc(OCc3ccccc3)c2)on1 | 136 |

Give its CC50 value. Item: `O=C(O)c1cc(-c2cccc(OCc3ccccc3)c2)no1`
282

Give its CC50 value. Item: `O=C(O)c1cc(-c2cccc(OCc3ccccc3)c2)ns1`
246

Give its CC50 value. Item: `O=C(O)c1cc(-c2cccc(OCc3ccccc3)c2)on1`
206

Give its CC50 value. Item: `O=C(O)c1cc(-c2cccc(OCc3ccccc3)c2)[nH]n1`
640

----------
target: Human immunodeficiency virus type 1 integrase (Human immunodeficiency virus 1, UniProt Q7ZJM1); assay: Inhibition of HIV1 wild type integrase strand transfer activity
value.kind: IC50 (µM)
# value in µM; strip the unit string

# count of solved cases: 2
| smiles.record | value.kind | measured.value |
| --- | --- | --- |
| O=C(NO)c1cc(-c2cccc(OCc3ccccc3)c2)on1 | IC50 | 27 |
| O=C(O)c1cc(-c2cccc(OCc3ccccc3)c2)on1 | IC50 | 68 |

Give its IC50 value. Item: `O=C(O)c1cc(-c2cccc(OCc3ccccc3)c2)[nH]n1`
100

----------
assay: Therapeutic index, ratio of CC50 for human C8166 cells to EC50 for HIV1 3B; assay type: cell-based; settings: read-out: Ratio CC50/EC50
value.kind: selectivity ratio

| smiles.record | measured.value |
| --- | --- |
| O=C(O)c1cc(-c2ccc([N+](=O)[O-])cc2)[nH]n1 | > 238 |

Give its selectivity ratio value. Item: `COC(=O)c1cc(-c2ccc([N+](=O)[O-])cc2)[nH]n1`
> 3.2

Give its selectivity ratio value. Item: `O=C(O)c1csnc1-c1cccc(OCc2ccccc2)c1`
> 11

Give its selectivity ratio value. Item: `O=C(O)c1cc(-c2ccc([N+](=O)[O-])cc2)on1`
> 4.3

----------
The following molecules are shown together with reported CC50 values.
experiment: Cytotoxicity against human C8166 cells by MTT method; type: cell-based

| smiles.record | measured.value |
| --- | --- |
| O=C(O)c1cc(-c2ccc([N+](=O)[O-])cc2)[nH]n1 | > 857 µM |
| O=C(O)c1csnc1-c1cccc(OCc2ccccc2)c1 | > 642 µM |
| O=C(O)c1cc(-c2ccc([N+](=O)[O-])cc2)on1 | > 854 µM |

Give its CC50 value. Item: `COC(=O)c1cc(-c2ccc([N+](=O)[O-])cc2)[nH]n1`
> 809 µM

----------
molecular target: Human immunodeficiency virus type 1 integrase (Human immunodeficiency virus 1); experiment: Inhibition of HIV1 wild type integrase strand transfer activity
pIC50: −log10 of the molar value.
The following compounds are shown together with reported pIC50 values.

# count of solved cases: 2
| smiles.record | study.system | value.kind | measured.value |
| --- | --- | --- | --- |
| O=C(O)c1cc(-c2cccc(OCc3ccccc3)c2)ns1 | Human immunodeficiency virus type 1 integrase (Human immunodeficiency virus 1) | pIC50 | < 4.00 |
| O=C(O)c1cc(-c2ccc([N+](=O)[O-])cc2)[nH]n1 | Human immunodeficiency virus type 1 integrase (Human immunodeficiency virus 1) | pIC50 | < 4.00 |

Let us examine a further case.
Give its pIC50 value. Item: `COC(=O)c1cc(-c2ccc([N+](=O)[O-])cc2)[nH]n1`
< 4.00
